Source listed as patent US5356915A.

# Tested on: isolated guinea pig tracheal spirals
# procedure.details: Direct relaxation of isolated guinea pig tracheal spirals (Test 3)
# run.parameters: Cavia porcellus; 50% of maximum relaxation (isoproterenol 1×10^-6 M = maximum); isolated guinea pig tracheae; 37° C., pH 7.4; mean of at least two experiments
value.kind: EC50 (µM)

Some molecules with recorded EC50:
CC1(C)C=C(c2cccc[n+]2[O-])c2cc(C#N)ccc2C1=O [Compound 10] : 0.2
CC1(C)C=C(c2cccc[n+]2[O-])c2cc(Br)ccc2C1=O [Compound 4] : 0.2

a: CC1(C)C=C(c2cccc[n+]2[O-])c2cc(Cl)c(Cl)cc2C1=O [Compound 18]
b: CC1(C)C=C(c2cccc[n+]2[O-])c2cc(C(F)(F)C(F)(F)F)ccc2C1=O [Compound 15]
c: CC1(C)CC(c2cccc[n+]2[O-])c2cc(C#N)ccc2C1=O (racemic) [Compound 12]
Task: Sort these molecules on EC50 so the largest reading comes first. Lab note: final answer is the ordered label list.
Result: c, a, b
(c: 3 µM, a: 0.2 µM, b: 0.1 µM)
